Test: IRF3 reporter activation in THP-1 macrophages, cell-based, PMA-stimulated THP-1, luminescence (AID 1053176)
Settings: PMA-differentiated THP-1, IRF3 reporter luminescence; stronger effect = higher value
Record true whenever fraction signal is at -0.005 or higher; record false when lower.

[in] Item O=C1NC(=NCCCc2ccccc2)SC1=Cc1ccc2ncccc2c1 with fraction signal of -0.005 or above?
[out] false

[in] Item O=C1NC(=O)C(c2c[nH]c3ccccc23)=C1c1c[nH]c2ccccc12 with fraction signal of -0.005 or above?
[out] true

[in] Item O=C1Nc2ccccc2/C1=C1\CCc2cc(O)ccc21 with fraction signal of -0.005 or above?
[out] false

[in] Item Oc1cccc(-c2nc(-c3ccccc3)[nH]c2-c2ccncc2)c1 with fraction signal of -0.005 or above?
[out] true

[in] Item COc1ccc(-c2oc3ncnc(N)c3c2-c2ccc(NC(=O)Nc3cc(C(F)(F)F)ccc3F)cc2)cc1 with fraction signal of -0.005 or above?
[out] true

[in] Item Cc1cccc2c(N=Nc3ccc(S(N)(=O)=O)cc3)c(O)[nH]c12 with fraction signal of -0.005 or above?
[out] false

[in] Item CN(C)C(=O)O[C@H]1CN[C@H](C#Cc2cc3ncnc(Nc4ccc(OCc5cccc(F)c5)c(Cl)c4)c3s2)C1 with fraction signal of -0.005 or above?
[out] true

[in] Item Fc1ccc(-c2ncn(C3CCNCC3)c2-c2ccnc(Oc3ccc(Oc4ccccc4)cc3)n2)cc1 with fraction signal of -0.005 or above?
[out] true

[in] Item CCCN1CCCC(c2ccc(Nc3nc(Nc4cc(F)ccc4C(N)=O)c4cc[nH]c4n3)c(OC)c2)C1 (stereo not given) with fraction signal of -0.005 or above?
[out] true

* * *

Assay: growth inhibition of DIPG glioma cells, dose response, cell-based, JHH-DIPG-1, MIPE4.0, CellTiter-Glo, qHTS (AID 1347062);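 for AC50: cells exposed to compound for two days before readout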
Settings: JHH-DIPG-1 viability, CellTiter-Glo ATP luminescence
Results filed as inconclusive are left out. Calls of active or inactive are those of the source. No cut-off is given here; in the data, nearly all actives have AC50 up to about 27 µM.
Would you mind answering with one of these outcomes? yes (1) for active, no (0) for inactive

[in] Per the records of this test, what outcome belongs to Nc1c2c(nc3ccccc13)CCCC2 ?
[out] no (0)

[in] Per the records of this test, what outcome belongs to CC(=O)O[C@]1(C(C)=O)CC[C@H]2[C@@H]3C=C(C)C4=CC(=O)CC[C@]4(C)[C@H]3CC[C@@]21C ?
[out] yes (1)

[in] Per the records of this test, what outcome belongs to CCc1cccc2c3c([nH]c12)C(CC)(CC(=O)O)OCC3 (stereo not drawn) ?
[out] no (0)

[in] Per the records of this test, what outcome belongs to CCCCc1oc2ccccc2c1C(=O)c1cc(I)c(OCCN(CC)CC)c(I)c1 ?
[out] yes (1)

[in] Per the records of this test, what outcome belongs to CNCCCC12CCC(c3ccccc31)c1ccccc12 ?
[out] yes (1)

[in] Per the records of this test, what outcome belongs to Cn1cc(C2=C(c3c4n(c5ccccc35)CCC(CN)C4)C(=O)NC2=O)c2ccccc21 (stereo not drawn) ?
[out] yes (1)

[in] Per the records of this test, what outcome belongs to O=c1[nH]cc(F)c(=O)[nH]1 ?
[out] no (0)

[in] Per the records of this test, what outcome belongs to OCCN1C[C@H](O)[C@@H](O)[C@H](O)[C@H]1CO ?
[out] no (0)

[in] Per the records of this test, what outcome belongs to O=C(c1ccccc1)c1ccc2n1CCC2C(=O)O (stereo not drawn) ?
[out] no (0)

[in] Per the records of this test, what outcome belongs to NNC(=O)c1ccncc1 ?
[out] no (0)

[in] Per the records of this test, what outcome belongs to C[C@]12C=CC(=O)C=C1CC[C@@H]1[C@@H]2[C@@H](O)C[C@@]2(C)[C@H]1CC[C@]2(O)C(=O)CO ?
[out] no (0)

[in] Per the records of this test, what outcome belongs to CN1C(C(=O)Nc2ccccn2)=C(O)c2ccccc2S1(=O)=O ?
[out] no (0)

[in] Per the records of this test, what outcome belongs to CS(=O)(=O)OCCCCOS(C)(=O)=O ?
[out] no (0)

[in] Per the records of this test, what outcome belongs to CC(C)Oc1ccc2c(=O)c(-c3ccccc3)coc2c1 ?
[out] no (0)

[in] Per the records of this test, what outcome belongs to CCn1cc(C(=O)O)c(=O)c2cc(F)c(N3CCN(C)CC3)cc21 ?
[out] no (0)

[in] Per the records of this test, what outcome belongs to COc1cc2ncn(-c3cc(OCc4ccccc4S(C)(=O)=O)c(C#N)s3)c2cc1OC ?
[out] no (0)

[in] Per the records of this test, what outcome belongs to CN(C)c1ccc(O)c2c1C[C@H]1C[C@H]3[C@H](N(C)C)C(=O)C(C(N)=O)=C(O)[C@@]3(O)C(=O)C1=C2O ?
[out] no (0)

[in] Per the records of this test, what outcome belongs to CN1CCCC(n2nc(Cc3ccc(Cl)cc3)c3ccccc3c2=O)CC1 (stereo not drawn) ?
[out] yes (1)

[in] Per the records of this test, what outcome belongs to CCC1(c2ccccc2)C(=O)NCNC1=O ?
[out] yes (1)

[in] Per the records of this test, what outcome belongs to Nc1nc2ccc(OC(F)(F)F)cc2s1 ?
[out] no (0)

[in] Per the records of this test, what outcome belongs to Cn1c(=O)c(Oc2ccc(F)cc2F)cc2cnc(NC3CCOCC3)nc21 ?
[out] no (0)

[in] Per the records of this test, what outcome belongs to OC(Cn1cncn1)(Cn1cncn1)c1ccc(F)cc1F ?
[out] no (0)

[in] Per the records of this test, what outcome belongs to O=C1c2c(O)ccc(O)c2C(=O)c2c(NCCNCCO)ccc(NCCNCCO)c21 ?
[out] yes (1)

* * *

Target: Cellular tumor antigen p53 (Homo sapiens)
Assay: kinase inhibitors altering GFP-p53 stability in HPV16-positive cells, imaging, known kinase inhibitor set, EGFP/DsRed ratio (AID 1053116);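 note: cells exposed to compounds for 24 h at 37 °C before reading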
Settings: stronger effect = higher value
test readout: EGFP/DsRed ratio
Answer with a bare number; do not write a unit.

Item Nc1ncnc2occ(-c3ccc(NC(=O)Nc4cccc(C(F)(F)F)c4)cc3)c12 ; assay system Cellular tumor antigen p53 (Homo sapiens); EGFP/DsRed ratio reported as 0.146

Item CCn1c(-c2nonc2N)nc2c(C#CCN)ncc(OCCCN)c21 ; assay system Cellular tumor antigen p53 (Homo sapiens); EGFP/DsRed ratio reported as 0.152

Item Cn1cc(C2=C(Sc3ccccc3)C(=O)NC2=O)c2ccccc21 ; assay system Cellular tumor antigen p53 (Homo sapiens); EGFP/DsRed ratio reported as 0.0664

Item CCN(CC)S(=O)(=O)c1ccc(OC)c(Nc2ncc(-c3ccccc3)o2)c1 ; assay system Cellular tumor antigen p53 (Homo sapiens); EGFP/DsRed ratio reported as 0.245

Item COC(=O)Nc1nc2ccc(Oc3ccc(NC(=O)Nc4cc(C(F)(F)F)ccc4F)cc3)cc2s1 ; assay system Cellular tumor antigen p53 (Homo sapiens); EGFP/DsRed ratio reported as 0.414

Item Cn1cc(C2=C(c3c4n(c5ccccc35)CC(CN)C4)C(=O)NC2=O)c2ccccc21 (stereo not given) ; assay system Cellular tumor antigen p53 (Homo sapiens); EGFP/DsRed ratio reported as 0.00726

Item Cc1nnc(-c2ccc(C)c(-c3ccc(C(=O)NCc4ccc(Cl)cc4)cc3)c2)o1 ; assay system Cellular tumor antigen p53 (Homo sapiens); EGFP/DsRed ratio reported as 0.079

Item COc1cc[nH]c1C=C1C(=O)Nc2ccc([N+](=O)[O-])c(N3CCC(O)C3)c21 (stereo not given) ; assay system Cellular tumor antigen p53 (Homo sapiens); EGFP/DsRed ratio reported as 0.0609

Item COc1cc2ncnc(Nc3ccc4c(cnn4Cc4ccccc4)c3)c2cc1OC ; assay system Cellular tumor antigen p53 (Homo sapiens); EGFP/DsRed ratio reported as 0.17

Item Cn1cc(C2=C(NN3CCOCC3)C(=O)NC2=O)c2ccccc21 ; assay system Cellular tumor antigen p53 (Homo sapiens); EGFP/DsRed ratio reported as 0.147

* * *

Exercise: state measured fold change for each of the compounds provided.
Test: sensitizers of A549 cells to miR-34 induction, primary screen, imaging, A549 dox-inducible miR-34, nuclei and caspase counts (AID 1347080)
Settings: A549 miR-34 inducible, Hoechst nuclei count, 48 h; measured here: relative caspase fold change +Dox/-Dox
Answer with a bare number; do not write a unit.

Consider N#Cc1c(NC(=O)c2ccccc2F)sc2c1CCCC2 . Its measured fold change is 0.12

Consider CC[C@]1(O)C[C@@H]2CN(CCc3c([nH]c4ccccc34)[C@@](C(=O)OC)(c3cc4c(cc3OC)N(C)[C@H]3[C@@](O)(C(=O)OC)[C@H](OC(C)=O)[C@]5(CC)C=CCN6CC[C@]43[C@@H]65)C2)C1 . Its measured fold change is 0.797

Consider CN(C)CCc1c[nH]c2ccc(C[C@H]3COC(=O)N3)cc12 . Its measured fold change is 1.39

Consider Fc1ccc(-c2nc3n(c2-c2ccncc2)CCS3)cc1 . Its measured fold change is 1.21

Consider CCCCCCCCCCC[C@@H](C[C@@H]1OC(=O)[C@H]1CCCCCC)OC(=O)[C@H](CC(C)C)NC=O . Its measured fold change is 2.26

Consider CCN(CCO)CCCC(C)Nc1ccnc2cc(Cl)ccc12 (centres undefined) . Its measured fold change is 5.27

Consider C[C@@H]1CC(=O)NN=C1c1ccc(NN=C(C#N)C#N)cc1 . Its measured fold change is 0.752

Consider CC1=C(C(=O)O)N2C(=O)[C@@H](NC(=O)[C@H](N)c3ccccc3)[C@H]2SC1 . Its measured fold change is 1.36

Consider COc1cc2ncn(-c3cc(OCc4ccccc4C(F)(F)F)c(C(N)=O)s3)c2cc1OC . Its measured fold change is 1.26
